Catalogue of IC50 readings, one per entry.
# System: MRC-5 cell line
# Procedure Summary: Cell viability assay for MRC-5 cell line
# Assay Conditions: Homo sapiens, MRC5, 120 h, read-out: Activity: IC50 value (nM) to MRC-5 cell line
// units = nM; emit number, no label

MRC-5 cell line IC50 of COc1cc(C(=O)NC2CC3(CCN(CC4CCN(c5ccc(C6CCC(=O)NC6=O)cc5)CC4)CC3)C2)ccc1Nc1ncc2c(n1)N(C(C)C)CC(F)(F)C(=O)N2C (stereo not shown) is 13100

Log: MRC-5 cell line, compound COc1cc(C(=O)NC2CCC(N(C)CC3CCN(c4ccc(C5CCC(=O)NC5=O)cc4F)CC3)CC2)ccc1Nc1ncc2c(n1)N(C(C)C)CC(F)(F)C(=O)N2C (stereo not shown) , IC50 = 13000

With MRC-5 cell line as the test system, COc1cc(C(=O)N[C@H]2CC[C@H](N(C)CCN3CCN(c4c(F)cc(C5CCC(=O)NC5=O)cc4F)CC3)CC2)ccc1Nc1ncc2c(n1)N(C(C)C)CC(F)(F)C(=O)N2C (stereo partly shown) showed IC50 of 15600

So the reported IC50 for COc1cc(C(=O)N[C@H]2CC[C@H](N(C)CCN3CCN(c4ccc(C5CCC(=O)NC5=O)cc4F)CC3)CC2)ccc1Nc1ncc2c(n1)N(C(C)C)CC(F)(F)C(=O)N2C (stereo partly shown) , on MRC-5 cell line, turned out to be 16600

Record COc1cc(C(=O)NC2CC(N(C)CCC3CCN(c4cccc(C5CCC(=O)NC5=O)c4)CC3)C2)ccc1Nc1ncc2c(n1)N(C(C)C)CC1(CC1)C(=O)N2C (stereo not shown) ; system MRC-5 cell line; IC50 = 12300

Lab entry: MRC-5 cell line assay, compound COc1cc(C(=O)NC2CCN(C3CC4(CCN(c5ccc(C6CCC(=O)NC6=O)cc5F)CC4)C3)CC2)ccc1Nc1ncc2c(n1)N(C(C)C)CC(F)(F)C(=O)N2C (stereo not shown) , IC50 = 5800

Recorded IC50 for COc1cc(C(=O)NC2CC3(CCN(CC4CCN(c5ccc(C6CCC(=O)NC6=O)cc5F)CC4)CC3)C2)c(F)cc1Nc1ncc2c(n1)N(C(C)C)CC(F)(F)C(=O)N2C (stereo not shown) on MRC-5 cell line was 14700

For COc1cc(C(=O)NC2CCN(CC3CN(c4ccc(C5CCC(=O)NC5=O)cc4F)C3)CC2)ccc1Nc1ncc2c(n1)N(C(C)C)CC(F)(F)C(=O)N2C (stereo not shown) on MRC-5 cell line, measured IC50 was 24600

// assay MRC-5 cell line, entry Cc1cc(C(=O)NC2CC3(CCN(CC4CCN(c5ccc(C6CCC(=O)NC6=O)cc5F)CC4)CC3)C2)c(F)cc1Nc1ncc2c(n1)N(C(C)C)CC(F)(F)C(=O)N2C (stereo not shown) , IC50 value = 12600

The reported IC50 value, MRC-5 cell line, for COc1cc(C(=O)NC2CC3(CCN(CC4CCN(c5c(F)cc(C6CCC(=O)NC6=O)cc5F)CC4)CC3)C2)ccc1Nc1ncc2c(n1)N(C(C)C)CC(F)(F)C(=O)N2C (stereo not shown) reads 17700

====

# Procedure Summary: Cell viability assay for MRC-5 cell line
# Assay Conditions: human
// values below are reported IC50 at 5 days

Recorded results for 4 compounds are shown here.
COc1cc(C(=O)NC2CC23CCN(CC2CCN(c4ccc(C5CCC(=O)NC5=O)cc4F)CC2)CC3)ccc1Nc1ncc2c(n1)N(C(C)C)CC(F)(F)C(=O)N2C (centres unmarked) [Compound 46]
> 10 µM
COc1cc(C(=O)NN2CC3(CCC(CN4CCN(c5ccc(C6CCC(=O)NC6=O)cc5F)CC4)CC3)C2)ccc1Nc1ncc2c(n1)N(C(C)C)CC(F)(F)C(=O)N2C (centres unmarked) [Compound 31]
> 10 µM
COc1cc(C(=O)NC2CC3(CCN(CC4CCN(c5ccc(C6CCC(=O)NC6=O)cc5F)CC4)CC3)C2)ccc1Nc1ncc2c(n1)N(C(C)C)CC(F)(F)C(=O)N2C (centres unmarked) [Compound 13]
> 10 µM
COc1cc(C(=O)OC2CC3(CCN(CC4CCN(c5ccc(C6CCC(=O)NC6=O)cc5F)CC4)CC3)C2)ccc1Nc1ncc2c(n1)N(C(C)C)CC(F)(F)C(=O)N2C (centres unmarked) [Compound 25]
> 10 µM

The reported value for COc1cc(C(=O)NC2CC3(CCN(CC4CCN(c5ccc(C6CCC(=O)NC6=O)cc5OC)CC4)CC3)C2)ccc1Nc1ncc2c(n1)N(C(C)C)CC(F)(F)C(=O)N2C (centres unmarked) [Compound 36] in terms of IC50 at 5 days is > 10 µM
